# Tested on: Staphylococcus aureus
# PROTOCOL DETAILS: Growth inhibition of Staphylococcus aureus MRSA 1094 at 50 uM relative to control
# APPLIED CONDITIONS: read-out: GI
Each record here notes measured inhibition of growth at 50 µM.
# value in %; strip the unit string

Completed entries (count: 3):
[[record]]
structure = "CCOc1ccc(/C=C2\\C(=O)N(c3ccccc3)N=C2CC(=O)OC)cc1OC"
measurement_units = "%"
measured_value = 2.81

[[record]]
structure = "COC(=O)CC1=NN(c2ccccc2)C(=O)/C1=C\\c1ccc(N(C)C)cc1"
measurement_units = "%"
measured_value = 11.5

[[record]]
structure = "COC(=O)CC1=NN(c2ccccc2)C(=O)/C1=C\\c1cc(OC)c(OC)c(OC)c1"
measurement_units = "%"
measured_value = 20.9


Param item = `COC(=O)CC1=NN(c2ccccc2)C(=O)/C1=C\c1ccc(O)cc1` ; retrieve measured inhibition of growth at 50 µM.
7.95

Suppose we examine the compound `COC(=O)CC1=NN(c2ccccc2)C(=O)/C1=C\c1ccco1` ; what inhibition of growth at 50 µM value has been reported?
20.4

Value lookup for inhibition of growth at 50 µM; key = `COC(=O)CC1=NN(c2ccccc2)C(=O)/C1=C\c1c[nH]c2ccccc12`
0.914

Entry under review: `COC(=O)CC1=NN(c2ccccc2)C(=O)/C1=C\c1ccsc1` . Reported inhibition of growth at 50 µM?
15

Recorded inhibition of growth at 50 µM for `COC(=O)CC1=NN(c2ccccc2)C(=O)/C1=C\c1ccc(OC)cc1OC` , please?
-0.169

What value of inhibition of growth at 50 µM has been recorded for this entry: `COC(=O)CC1=NN(c2ccccc2)C(=O)/C1=C\c1ccc(Cl)cc1`
38

Can you share its inhibition of growth at 50 µM? I mean this compound: `COC(=O)CC1=NN(c2ccccc2)C(=O)/C1=C\c1ccccc1Br`
53.5
